Hello, the source for this data is ChEMBL document CHEMBL1135944, in case you need it.

target-entity: Oxytocin receptor (Homo sapiens)
Sequence (P30559 whole entry): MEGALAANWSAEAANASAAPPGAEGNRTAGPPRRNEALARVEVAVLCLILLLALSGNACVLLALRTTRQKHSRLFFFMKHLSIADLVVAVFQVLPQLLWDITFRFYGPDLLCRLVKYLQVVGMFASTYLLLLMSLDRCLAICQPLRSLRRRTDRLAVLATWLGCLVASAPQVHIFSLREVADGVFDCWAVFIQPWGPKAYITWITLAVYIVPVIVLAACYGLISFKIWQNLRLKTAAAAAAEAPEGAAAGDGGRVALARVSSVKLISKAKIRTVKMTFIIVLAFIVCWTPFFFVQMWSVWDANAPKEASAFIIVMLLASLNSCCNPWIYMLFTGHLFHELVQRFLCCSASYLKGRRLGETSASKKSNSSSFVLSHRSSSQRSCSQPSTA
test-method-notes: Ability to displace [3H]oxytocin from human OT receptor (hOT)
observable: pKi
Schema: pKi number; meaning minus log10 of the concentration expressed in molar units.

The following molecules have reported results that may help.
{"chemical-string": "O=C(CN1CCCC1=O)NCc1cc2cc(C(=O)N3CCC(N4C(=O)OCc5ccccc54)CC3)ccc2o1", "reported-measurement": 7.60}
{"chemical-string": "O=C(c1ccc2[nH]ccc2n1)N1CCC(N2C(=O)OCc3ccccc32)CC1", "reported-measurement": 6.10}

Problem: API: value(readout=pKi, system=Oxytocin receptor (Homo sapiens)) for record O=C(c1ccc2ncsc2c1)N1CCC(N2C(=O)OCc3ccccc32)CC1
Result: 6.10
